Parameter EC50: see the listing below.
# measuredOn: F508delCFTR (Homo sapiens, UniProt P13569, DEL508-508)
# Construct: expressed in transfected cells; host or cells: CFBE41o- human lung-derived epithelial cells (CFBE4lo-F508delCFTR-HRP), doxycycline-inducible
# Sequence (P13569 with tags, fused parts or gaps DEL508-508): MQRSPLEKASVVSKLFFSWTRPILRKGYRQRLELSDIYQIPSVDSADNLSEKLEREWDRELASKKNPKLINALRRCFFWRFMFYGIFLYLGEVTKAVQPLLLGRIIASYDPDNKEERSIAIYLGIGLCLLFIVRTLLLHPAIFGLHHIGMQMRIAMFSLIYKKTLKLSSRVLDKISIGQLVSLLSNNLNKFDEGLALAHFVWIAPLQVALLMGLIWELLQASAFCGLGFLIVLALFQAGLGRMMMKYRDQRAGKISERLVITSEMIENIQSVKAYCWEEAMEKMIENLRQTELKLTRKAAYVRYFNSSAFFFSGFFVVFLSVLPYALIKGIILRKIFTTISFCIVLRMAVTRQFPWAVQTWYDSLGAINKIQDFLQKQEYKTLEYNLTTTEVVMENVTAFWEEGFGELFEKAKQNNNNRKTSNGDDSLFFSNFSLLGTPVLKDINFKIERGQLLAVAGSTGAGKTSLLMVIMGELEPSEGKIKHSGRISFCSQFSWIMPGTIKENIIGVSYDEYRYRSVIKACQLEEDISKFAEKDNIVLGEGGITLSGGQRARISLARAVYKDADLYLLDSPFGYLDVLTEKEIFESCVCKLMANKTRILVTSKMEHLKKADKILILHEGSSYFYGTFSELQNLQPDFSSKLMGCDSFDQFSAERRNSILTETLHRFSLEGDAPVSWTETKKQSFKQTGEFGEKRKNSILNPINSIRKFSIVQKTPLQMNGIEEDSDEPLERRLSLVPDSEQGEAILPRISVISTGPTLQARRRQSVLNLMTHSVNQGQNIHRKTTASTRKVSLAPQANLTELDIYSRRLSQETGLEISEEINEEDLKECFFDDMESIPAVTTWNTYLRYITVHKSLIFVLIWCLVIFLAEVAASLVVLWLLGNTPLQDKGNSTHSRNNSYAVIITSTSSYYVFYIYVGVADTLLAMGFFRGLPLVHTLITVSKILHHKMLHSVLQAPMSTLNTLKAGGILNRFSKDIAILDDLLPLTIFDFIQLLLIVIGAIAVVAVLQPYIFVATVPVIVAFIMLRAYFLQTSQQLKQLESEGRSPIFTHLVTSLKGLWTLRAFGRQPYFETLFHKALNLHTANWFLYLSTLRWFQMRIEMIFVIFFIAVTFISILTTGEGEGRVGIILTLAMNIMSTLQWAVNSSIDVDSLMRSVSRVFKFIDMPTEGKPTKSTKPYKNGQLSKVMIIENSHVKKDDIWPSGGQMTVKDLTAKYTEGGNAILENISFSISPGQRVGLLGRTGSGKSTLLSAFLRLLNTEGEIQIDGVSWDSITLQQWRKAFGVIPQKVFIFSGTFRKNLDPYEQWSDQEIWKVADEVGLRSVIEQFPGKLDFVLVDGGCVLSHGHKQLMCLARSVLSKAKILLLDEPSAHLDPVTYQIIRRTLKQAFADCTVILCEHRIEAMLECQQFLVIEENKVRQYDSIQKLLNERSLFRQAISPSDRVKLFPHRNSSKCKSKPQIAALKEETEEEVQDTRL
# experimentNotes: Cell Surface Expression-Horse Radish Peroxidase (CSE-HRP) Assay
# Assay type: cell-based
# condition: CSE-HRP; with co-corrector (2 μM of 3-[(2R,4R)-4-({[1-(2,2-difluoro-1,3-benzodioxol-5-yl)cyclopropyl]carbonyl}amino)-7-methoxy-3,4-dihydro-2H-chromen-2-yl]benzoic acid); read-out: EC50 (with co-corrector)

molecule: CC(C)OC(=O)N1[C@H](C(=O)O)[C@@H](C(C)(C)C)[C@H](NCC(C)(C)c2ccccc2)[C@@H]1c1ccccc1
measuredOn: F508delCFTR (Homo sapiens, UniProt P13569, DEL508-508)
EC50: 1000 to 10000 nM
//
molecule: COc1ncc(C2CCC2)cc1CN[C@H]1[C@H](C(C)(C)C)[C@@H](C(=O)O)N(C(=O)[C@@H]2CCCCO2)[C@H]1c1cccc2c1OCC2
measuredOn: F508delCFTR (Homo sapiens, UniProt P13569, DEL508-508)
EC50: 1000 to 10000 nM
//
molecule: COc1ccc(C(F)(F)F)cc1CN[C@H]1[C@H](C(C)(C)C)[C@@H](C(=O)O)N(C(=O)C2CCCC(F)(F)C2)[C@H]1c1cccnc1OC (relative stereo)
measuredOn: F508delCFTR (Homo sapiens, UniProt P13569, DEL508-508)
EC50: < 1000 nM
//
molecule: COc1ccc(C2CCC2)cc1CN[C@H]1[C@H](C(C)(C)OC)[C@@H](C(=O)O)N(C(=O)C2CCCCC2)[C@H]1c1ccccc1
measuredOn: F508delCFTR (Homo sapiens, UniProt P13569, DEL508-508)
EC50: < 1000 nM
//
molecule: COc1ncc(C2CCC2)cc1CN[C@H]1[C@H](C(C)(C)C)[C@@H](C(=O)O)N(C(=O)[C@H]2CCCCO2)[C@H]1c1ccccc1C
measuredOn: F508delCFTR (Homo sapiens, UniProt P13569, DEL508-508)
EC50: 1000 to 10000 nM
//
molecule: COc1ncc(C(F)(F)F)cc1CN[C@H]1[C@H](C(C)(C)C)[C@@H](C(=O)O)N(C(=O)C2CC2)[C@H]1c1ccccc1C(C)C
measuredOn: F508delCFTR (Homo sapiens, UniProt P13569, DEL508-508)
EC50: 1000 to 10000 nM

Request: Give its EC50 value. Item: `COc1ccc(-c2cccs2)cc1CN[C@H]1[C@H](C(C)(C)C)[C@@H](C(=O)O)N(C(=O)C2CCCCC2)[C@H]1c1ccccc1`
Response: < 1000 nM

----------
# measuredOn: F508delCFTR (Homo sapiens, UniProt P13569, DEL508-508)
# Construct: expressed in transfected cells; host or cells: CFBE41o- human lung-derived epithelial cells (CFBE4lo-F508delCFTR-HRP), doxycycline-inducible
# experimentNotes: Cell Surface Expression-Horse Radish Peroxidase (CSE-HRP) Assay;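 on Maximum % activity (with co-corrector): co-corrector and positive control are both the same reference corrector at 2 µM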
# Format: cell-based
# condition: with co-corrector (2 μM of 3-[(2R,4R)-4-({[1-(2,2-difluoro-1,3-benzodioxol-5-yl)cyclopropyl]carbonyl}amino)-7-methoxy-3,4-dihydro-2H-chromen-2-yl]benzoic acid); maximum at any tested concentration, normalized to on-plate positive control
# Protocol: Cell Surface Expression-Horse Radish Peroxidase (CSE-HRP) Assay The development was achieved by expressing the F508delCFTR mutation along with a horseradish peroxidase (HRP) in the fourth exofacial loop, and then measuring the HRP activity using luminescence readout from these cells, CFBE4lo-F508delCFTR-HRP, that were incubated overnight with the test corrector compounds, either without or with the co-corrector. […] The raw counts from the experiment were analyzed using Accelrys® Assay Explorer v3.3. […]
outcomeMeasure: Maximum % activity (with co-corrector)

The following compounds have reported results that may help.
compound: COc1nc(C(C)(C)C)ccc1CN[C@H]1[C@H](C(C)(C)C)[C@@H](C(=O)O)N(C(=O)OC(C)C)[C@H]1c1cccnc1OC(C)C
measuredOn: F508delCFTR (Homo sapiens, UniProt P13569, DEL508-508)
Maximum % activity (with co-corrector): +++ (≥350)

compound: COc1ccc(C(C)(C)C)cc1CN[C@H]1[C@H](C(C)(C)C)[C@@H](C(=O)O)N(C(=O)C2=C(F)CCCC2)[C@H]1c1ccccc1
measuredOn: F508delCFTR (Homo sapiens, UniProt P13569, DEL508-508)
Maximum % activity (with co-corrector): +++ (≥350)

compound: COc1ccc(C(C)(C)C)cc1CN[C@H]1[C@H](C(C)(C)C)[C@@H](C(=O)O)N(C(=O)c2cnn(C)c2-c2ccccc2)[C@H]1c1ccccc1
measuredOn: F508delCFTR (Homo sapiens, UniProt P13569, DEL508-508)
Maximum % activity (with co-corrector): +++ (≥350)

compound: COc1ccc(C2(C(F)(F)F)CC2)cc1CN[C@H]1[C@H](C(C)(C)C)[C@@H](C(=O)O)N(C(=O)C2CCCCC2)[C@H]1c1ccccc1F
measuredOn: F508delCFTR (Homo sapiens, UniProt P13569, DEL508-508)
Maximum % activity (with co-corrector): +++ (≥350)

compound: COc1ccc(C(C)(C)C)cc1CN[C@H]1[C@H](C(C)(C)C)[C@@H](C(=O)O)N(C(=O)C2CC(C)CC(C)C2)[C@H]1c1cccnc1N(C)C (stereo partly drawn)
measuredOn: F508delCFTR (Homo sapiens, UniProt P13569, DEL508-508)
Maximum % activity (with co-corrector): +++ (≥350)

compound: COc1ccc(C(C)(C)C)cc1CN[C@H]1[C@H](C(C)(C)C)[C@@H](C(=O)O)N(C(=O)c2cnn(C(C)(C)C)c2C#N)[C@H]1c1ccccc1
measuredOn: F508delCFTR (Homo sapiens, UniProt P13569, DEL508-508)
Maximum % activity (with co-corrector): +++ (≥350)

compound: COc1ncc(C(F)(F)F)cc1CN[C@H]1[C@H](C(C)(C)C)[C@@H](C(=O)O)N(C(=O)OC(C)C)[C@H]1c1cccnc1OC
measuredOn: F508delCFTR (Homo sapiens, UniProt P13569, DEL508-508)
Maximum % activity (with co-corrector): +++ (≥350)

compound: COc1ccc(C(C)(C)C)cc1CN[C@H]1[C@H](C(C)(C)C)[C@@H](C(=O)O)N(C(=O)C2CC2(F)F)[C@H]1c1ccccc1 (stereo partly drawn)
measuredOn: F508delCFTR (Homo sapiens, UniProt P13569, DEL508-508)
Maximum % activity (with co-corrector): +++ (≥350)

compound: COc1ncc(C2=CCOC2)cc1CN[C@H]1[C@H](C(C)(C)C)[C@@H](C(=O)O)N(C(=O)C2CCCCC2)[C@H]1c1ccccc1
measuredOn: F508delCFTR (Homo sapiens, UniProt P13569, DEL508-508)
Maximum % activity (with co-corrector): +++ (≥350)

compound: O=C(O)[C@@H]1N(C(=O)C2CCCCC2)[C@H](c2ccccc2)[C@H](NCc2ccccc2OC(F)F)C12CC2 (racemic)
measuredOn: F508delCFTR (Homo sapiens, UniProt P13569, DEL508-508)
Maximum % activity (with co-corrector): ++ (≥150 and <350)

Proceeding to the next compound to report its Maximum % activity (with co-corrector).
Request: Requested read-out: Maximum % activity (with co-corrector). Entry: `COc1ccc(C(F)(F)F)cc1CN[C@@H]1[C@H](C(C)(C)C)[C@@H](C(=O)O)N(C(=O)OC(C)C)[C@H]1c1ccccc1`
Response: ++ (≥150 and <350)
